- System: human T lymphoblast (CEM) cells
- Test Summary: Cytotoxicity, CellTiter 96 assay in CEM cells
- Assay type: cell-based
- Measurement Parameters: read-out: Cytotoxicity CC50 CEM; CEM cells
Assay Metric: CC50

# input What is its CC50 for human T lymphoblast (CEM) cells? Entry: C#CCNC(=O)C(=O)c1c(C)c(C(=O)Nc2ccc(F)c(F)c2)n(C)c1C [GLP-26, reference compound]
# output > 100 µM

###

Here the recorded CC50 is given for each entry.
- Test Summary: Cytotoxicity, CellTiter 96 assay in PBM cells
- Format: cell-based, human
- Measurement Parameters: human, peripheral blood mononuclear (PBM) cells

Consider the following illustrative entries.
INSERT INTO results (compound, assay_metric, result) VALUES
  ('C#CCNC(=O)C(=O)c1c(C)c(C(=O)Nc2ccc(F)c(F)c2)n(CC2CC2)c1C [Compound 5f]', 'CC50', '> 100 µM'),
  ('C#CCn1c(C)c(C(=O)C(=O)NC(C#C)(CC)CC)c(C)c1C(=O)Nc1ccc(F)c(F)c1 [Compound 10b]', 'CC50', '53 µM'),
  ('C#CCNC(=O)C(=O)c1c(C)c(C(=O)Nc2ccc(F)c(F)c2)n(CCCC)c1C [Compound 5c]', 'CC50', '> 100 µM'),
  ('C#CCNC(=O)C(=O)c1c(C)c(C(=O)Nc2ccc(F)c(F)c2)n(CC#CCC)c1C [Compound 5i]', 'CC50', '> 100 µM'),
  ('C#CCNC(=O)C(=O)c1c(C)c(C(=O)Nc2ccc(F)c(F)c2)n(Cc2ccccc2)c1C [Compound 5j]', 'CC50', '> 100 µM'),
  ('C#CC1(NC(=O)C(=O)c2c(C)c(C(=O)Nc3ccc(F)c(F)c3)n(C)c2C)CCC1 [Compound 9e]', 'CC50', '> 100 µM'),
  ('C#CC(C)(CC)NC(=O)C(=O)c1c(C)c(C(=O)Nc2ccc(F)c(F)c2)n(C)c1C (stereo not drawn) [Compound 9b]', 'CC50', '61 µM'),
  ('C#CC(C)(C)NC(=O)C(=O)c1c(C)c(C(=O)Nc2ccc(F)c(F)c2)n(C)c1C [Compound 9a]', 'CC50', '64 µM');

# input // query CC50 value for entry C#CC1(NC(=O)C(=O)c2c(C)c(C(=O)Nc3ccc(F)c(F)c3)n(C)c2C)CCCCC1 [Compound 9f]
# output 23 µM

# input // query CC50 value for entry C#CCNC(=O)C(=O)c1c(C)c(C(=O)Nc2ccc(F)c(F)c2)n(CC=C)c1C [Compound 5d]
# output > 100 µM

# input // query CC50 value for entry C#CCn1c(C)c(C(=O)C(=O)NC(C)(C)C#C)c(C)c1C(=O)Nc1ccc(F)c(F)c1 [Compound 10a]
# output > 100 µM

# input // query CC50 value for entry C#CCNC(=O)C(=O)c1c(C)c(C(=O)Nc2ccc(F)c(F)c2)n(CCC)c1C [Compound 5b]
# output > 100 µM

# input // query CC50 value for entry C#CCNC(=O)C(=O)c1c(C)c(C(=O)Nc2ccc(F)c(F)c2)n(CC#C)c1C [Compound 5g]
# output > 100 µM

# input // query CC50 value for entry C#CCNC(=O)C(=O)c1c(C)c(C(=O)Nc2ccc(F)c(F)c2)n(C2CC2)c1C [Compound 5e]
# output > 100 µM

# input // query CC50 value for entry C#CC1(NC(=O)C(=O)c2c(C)c(C(=O)Nc3ccc(F)c(F)c3)n(C)c2C)CC1 [Compound 9d]
# output > 100 µM

# input // query CC50 value for entry C#CC(CC)(CC)NC(=O)C(=O)c1c(C)c(C(=O)Nc2ccc(F)c(F)c2)n(C)c1C [Compound 9c]
# output 26 µM

# input // query CC50 value for entry C#CCNC(=O)C(=O)c1c(C)c(C(=O)Nc2ccc(F)c(F)c2)n(CC#CC)c1C [Compound 5h]
# output > 100 µM

# input // query CC50 value for entry C#CCNC(=O)C(=O)c1c(C)c(C(=O)Nc2ccc(F)c(F)c2)n(CC)c1C [Compound 5a]
# output > 100 µM
